B1: PHD finger protein 12 (Homo sapiens), Q96QT6 (parent)
chain: MWEKMETKTIVYDLDTSGGLMEQIQALLAPPKTDEAEKRSRKPEKEPRRSGRATNHDSCDSCKEGGDLLCCDHCPAAFHLQCCNPPLSEEMLPPGEWMCHRCTVRRKKREQKKELGHVNGLVDKSGKRTTSPSSDTDLLDRSASKTELKAIAHARILERRASRPGTPTSSASTETPTSEQNDVDEDIIDVDEEPVAAEPDYVQPQLRRPFELLIAAAMERNPTQFQLPNELTCTTALPGSSKRRRKEETTGKNVKKTQHELDHNGLVPLPVKVCFTCNRSCRVAPLIQCDYCPLLFHMDCLEPPLTAMPLGRWMCPNHIEHVVLNQKNMTLSNRCQVFDRFQDTVSQHVVKVDFLNRIHKKHPPNRRVLQSVKRRSLKVPDAIKSQYQFPPPLIAPAAIRDGELICNGIPEESQMHLLNSEHLATQAEQQEWLCSVVALQCSILKHLSAKQMPSHWDSEQTEKADIKPVIVTDSSVTTSLQTADKTPTPSHYPLSCPSGISTQNSLSCSPPHQSPALEDIGCSSCAEKSKKTPCGTANGPVNTEVKANGPHLYSSPTDSTDPRRLPGANTPLPGLSHRQGWPRPLTPPAAGGLQNHTVGIIVKTENATGPSSCPQRSLVPVPSLPPSIPSSCASIENTSTLQRKTVQSQIGPPLTDSRPLGSPPNATRVLTPPQAAGDGILATTANQRFSSPAPSSDGKVSPGTLSIGSALTVPSFPANSTAMVDLTNSLRAFMDVNGEIEINMLDEKLIKFLALQRIHQLFPSRVQPSPGSVGTHQLASGGHHIEVQRKEVQARAVFYPLLGLGGAVNMCYRTLYIGTGADMDVCLTNYGHCNYVSGKHACIFYDENTKHYELLNYSEHGTTVDNVLYSCDFSEKTPPTPPSSIVAKVQSVIRRRRHQKQDEEPSEEAAMMSSQAQGPQRRPCNCKASSSSLIGGSGAGWEGTALLHHGSYIKLGCLQFVFSITEFATKQPKGDASLLQDGVLAEKLSLKPHQGPVLRSNSVP

# Variants of: B1
# assay.context: with MORF4L1, Q9UBU8-2
# Sequence (Q9UBU8 other isoform, or with tags, fused parts or gaps): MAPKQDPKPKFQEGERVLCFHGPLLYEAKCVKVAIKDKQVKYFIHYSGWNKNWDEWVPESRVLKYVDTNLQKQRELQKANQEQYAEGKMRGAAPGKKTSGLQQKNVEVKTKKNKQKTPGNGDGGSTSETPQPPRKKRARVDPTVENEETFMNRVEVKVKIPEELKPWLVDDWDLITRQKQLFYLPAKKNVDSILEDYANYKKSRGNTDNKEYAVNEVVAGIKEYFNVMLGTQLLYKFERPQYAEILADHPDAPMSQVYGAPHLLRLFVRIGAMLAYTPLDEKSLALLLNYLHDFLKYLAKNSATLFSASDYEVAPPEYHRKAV
parameter: effect of a mutation on the interaction

* F225A | decreasing interaction
* P228A | decreasing interaction
* F210A | decreasing interaction
* L227A | decreasing interaction
* N221E | decreasing interaction
* L213A | decreasing interaction

Origin of the recorded values: IntAct's records for PubMed 22244764
